Would you kindly list Inhibition for each of these compounds?
# System: Candida albicans; also: assay method not described here
# condition_context: 32 ug/mL
# Description: Antifungal activity against Candida albicans ATCC 90028 (CO-ADD:FG_001); MIC in YNB media using NBS plates, by OD630
Results with a measured potency or affinity are listed apart.
Give the value in % but do not write % after it.

I'm curious: which Inhibition was measured for `O=C(NCc1ccccc1)c1cc2ccccc2[nH]1` tested on Candida albicans?; also: assay method not described here
-0.44

Identify the measured Inhibition of `CC(C)(C)OC(=O)N[C@H]1CC[C@H](O)CC1` for Candida albicans.
0.02

Lookup: Inhibition / Candida albicans / `COc1ccc2c(c1)cc(C(=O)Nc1ccccc1)n2C`
2.05

Entry `CCOC(N)=CC#N` , system Candida albicans: what Inhibition was measured?; also: assay method not described here
0.84

Item: CC1=C(CO)C(c2ccc(C#N)cc2)C(C#N)=C(N)O1 (configuration not stated) Test system: Candida albicans Read-out: Inhibition Value: ?; also: assay method not described here
5.46

API: value(readout=Inhibition, system=Candida albicans) for record `C=C1CN(C)c2c(C#N)cc(C#N)c(=S)n21`; also: assay method not described here
4.91

Lab note: need Inhibition for CC(C(=O)O)c1c[nH]c2ccccc12 (configuration not stated) on Candida albicans, anyone have it?
31.5
